- target.system: Alpha-glucosidase (Saccharomyces cerevisiae S288c, UniProt P53341+P38158+P07265)
- test.summary: Inhibition of yeast Alpha glucosidase 4-nitrophenyl-alpha-D-glucopyranoside incubated for 15 to 20 mins by Bio-rad microplate reader analysis
- Type: protein assay
Give measured log10 of IC50 for each item. Keep answers brief.
Friendly reminder: values = log10 of IC50, unit µM.

Batch lookup, log10 of IC50 per entry.
1. COc1cc(/C=C2\SC(=O)N(Cc3cccc([N+](=O)[O-])c3)C2=O)cc(OC)c1OC
2. O=C1S/C(=C\c2ccc(O)cc2)C(=O)N1Cc1cccc([N+](=O)[O-])c1
3. O=C1S/C(=C\c2ccc(-c3ccccc3)cc2)C(=O)N1Cc1cccc([N+](=O)[O-])c1
4. O=C1S/C(=C\c2ccc(Cl)cc2Cl)C(=O)N1Cc1cccc([N+](=O)[O-])c1
5. O=C1S/C(=C\c2c(Cl)cccc2Cl)C(=O)N1Cc1cccc([N+](=O)[O-])c1
6. O=C1S/C(=C\c2ccc(Cl)cc2)C(=O)N1Cc1cccc([N+](=O)[O-])c1
7. O=C1S/C(=C\c2cccc(Cl)c2Cl)C(=O)N1Cc1cccc([N+](=O)[O-])c1

1.60
1.47
1.19
1.32
1.58
1.35
1.73

Batch lookup, log10 of IC50 per entry.
1. CCOc1cc(/C=C2\SC(=O)N(Cc3cccc([N+](=O)[O-])c3)C2=O)ccc1O
2. COc1ccc(/C=C2\SC(=O)N(Cc3cccc([N+](=O)[O-])c3)C2=O)c(OC)c1
3. O=C1S/C(=C\c2c[nH]c3ccccc23)C(=O)N1Cc1ccccc1
4. CN(C)c1ccc(/C=C2\SC(=O)N(Cc3cccc([N+](=O)[O-])c3)C2=O)cc1
5. COc1cc(OC)c(OC)cc1/C=C1\SC(=O)N(Cc2cccc([N+](=O)[O-])c2)C1=O
6. COc1cc(OC)c(/C=C2\SC(=O)N(Cc3cccc([N+](=O)[O-])c3)C2=O)c(OC)c1
7. COc1cc(/C=C2\SC(=O)N(Cc3cccc([N+](=O)[O-])c3)C2=O)ccc1O

[1.01, 1.82, 1.41, 1.23, 1.73, 1.06, 1.30]

Batch lookup, log10 of IC50 per entry.
1. COc1ccc(OC)c(/C=C2\SC(=O)N(Cc3cccc([N+](=O)[O-])c3)C2=O)c1
2. COc1ccc(/C=C2\SC(=O)N(Cc3cccc([N+](=O)[O-])c3)C2=O)cc1
3. COc1cccc(/C=C2\SC(=O)N(Cc3cccc([N+](=O)[O-])c3)C2=O)c1OC
4. O=C1S/C(=C\c2ccc(Br)cc2)C(=O)N1Cc1cccc([N+](=O)[O-])c1
5. COc1ccc(/C=C2\SC(=O)N(Cc3cccc([N+](=O)[O-])c3)C2=O)cc1O

1. 2.30
2. 1.76
3. 2.18
4. 1.30
5. 1.52

---

- target.system: Alpha amylase (Homo sapiens, UniProt P0DUB6)
- Sequence (P0DUB6 whole entry): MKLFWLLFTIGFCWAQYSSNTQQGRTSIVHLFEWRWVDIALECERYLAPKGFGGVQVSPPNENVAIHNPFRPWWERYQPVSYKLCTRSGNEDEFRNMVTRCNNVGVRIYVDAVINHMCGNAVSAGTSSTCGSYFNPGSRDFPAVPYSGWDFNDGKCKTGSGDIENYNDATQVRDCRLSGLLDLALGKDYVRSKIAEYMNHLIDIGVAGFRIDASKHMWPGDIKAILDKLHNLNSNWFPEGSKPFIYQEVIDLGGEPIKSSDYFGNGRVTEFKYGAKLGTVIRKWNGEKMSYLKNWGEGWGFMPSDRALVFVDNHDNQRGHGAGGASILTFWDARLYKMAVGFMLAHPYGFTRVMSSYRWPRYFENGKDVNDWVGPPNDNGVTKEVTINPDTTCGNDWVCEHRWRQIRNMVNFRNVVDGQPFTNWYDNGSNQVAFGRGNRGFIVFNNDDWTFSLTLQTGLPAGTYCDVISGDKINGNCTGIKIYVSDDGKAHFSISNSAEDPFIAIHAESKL
- test.summary: Inhibition of Alpha-amylase (unknown origin)
- Assay type: protein assay
endpoint: IC50 (µg/mL)
Answers are plain numbers, in µg/mL.

# annotated cases, reported IC50 shown
Sample N#Cc1ccccc1-c1ccc(N2C(=O)S/C(=C\c3ccccc3Oc3ccccc3)C2=O)cc1 — what was its IC50?
0.13

Sample C=CCN1C(=O)S/C(=C\c2ccc(Cl)cc2Cl)C1=O — what was its IC50?
43.85

Sample O=C(O)CN1C(=O)S/C(=C\c2ccc3c(c2)OCO3)C1=O — what was its IC50?
10.26

***
Sample O=C(O)CN1C(=O)S/C(=C\c2cn(-c3ccccc3)nc2-c2ccc([N+](=O)[O-])cc2)C1=O — what was its IC50?
4.08
